# credit: PubChem BioAssay (NCI)

# Test system: SK-MEL-5 melanoma
# assay: NCI tumour cell line growth inhibition, 48 h
metric name: TGI

Just so you know, measured TGI for CCc1ccc(Cc2ccc(CC)c(NC(=O)C(=O)Cc3nc4ccccc4nc3C)c2CC)c(CC)c1NC(=O)C(=O)Cc1nc2ccccc2nc1C came out at > 100 µM

Just so you know, measured TGI for O=C(Cn1ccnc1[N+](=O)[O-])NCCO came out at > 100 µM

Just so you know, measured TGI for CC1(CCCC2(C)CCNC2=O)OCCO1 (stereo not drawn) came out at > 10 µM

====

# Tested on: HCC-2998 colon
# assay: NCI tumour cell line growth inhibition, 48 h
metric name: TGI

Just so you know, measured TGI for Cc1ncc(C(=O)Nc2ccc(CN3CCN(C)CC3)c(C(F)(F)F)c2)cc1C#Cc1c(N)ncc2ccc(C#N)cc12 came out at > 40.9 µM

Just so you know, measured TGI for Cn1ccnc1CCc1ccc(F)cc1F came out at > 100 µM

Just so you know, measured TGI for O=C(O)CC(NC(=O)Nc1ccc([N+](=O)[O-])cc1)C(=O)Nc1ccc([N+](=O)[O-])cc1 (stereo not drawn) came out at > 100 µM

====

Would you mind telling me the reported TGI of each entry?
# System: A498 renal
# assay: NCI tumour cell line growth inhibition, 48 h

Just so you know, measured TGI for CC(=O)NNc1nc(C)c(C(/C=C/c2ccc(/C=C/C(=N\NC(=O)c3ccncc3)c3sc(NNC(C)=O)nc3C)cc2)=N/NC(=O)c2ccncc2)s1 came out at > 100 µM

Just so you know, measured TGI for CCOC(=O)C(=[N+]=[N-])C(=O)C[N+]12CCN(CC1)CC2 came out at > 100 µM

Just so you know, measured TGI for CC1(CCCC2(C)CCNC2=O)OCCO1 (configuration not stated) came out at > 10 µM

Just so you know, measured TGI for CCCSc1cc(Cl)c(C)cc1S(=O)(=O)n1ccnc1OCCCN(C)C came out at > 100 µM

Just so you know, measured TGI for O=C(CCc1cccc(O)c1)NCCc1cccc(O)c1 came out at > 100 µM

Just so you know, measured TGI for COc1c2occc2c(OC)c2c(=O)c(S(=O)(=O)NC(=O)Nc3ccc(Cl)cc3)coc12 came out at > 10 µM

Just so you know, measured TGI for O=C1COC(c2ccccc2O)=NN1CCCN1CCCC1 came out at > 100 µM

Just so you know, measured TGI for COc1ccc(-c2oc3ccc(C)cc3c(=O)c2O)cc1 came out at > 100 µM

Just so you know, measured TGI for CCCC(Sc1nc(N)nc2nc[nH]c12)C(=O)O (configuration not stated) came out at > 100 µM

Just so you know, measured TGI for Cc1cccc2c1C(=O)C1(Cc3ccccc3C1=O)C2 (configuration not stated) came out at > 100 µM

Just so you know, measured TGI for C1=C[C@@H]2c3ccc4cnccc4c3NC[C@@H]2C1 came out at > 100 µM

Just so you know, measured TGI for CN(C(=O)C12C3C4(C(=O)O)C1(C(=O)N(C)C(C)(C)C)C1C2(C(=O)O)C3(C(=O)N(C)C(C)(C)C)C14C(=O)N(C)C(C)(C)C)C(C)(C)C (configuration not stated) came out at > 100 µM

====

Would you mind telling me the reported TGI of each entry?
# Test system: MDA-MB-435
# assay: NCI tumour cell line growth inhibition, 48 h

Just so you know, measured TGI for CSC1=Nc2ccccc2-c2nc(-c3ccccc3)cc(-c3ccccc3)c2C1 came out at > 100 µM

Just so you know, measured TGI for CC(C)Oc1cc(OCC(=O)O)cc(C(=O)N(CCC(N)=O)C(=O)Nc2ccc(C(=O)O)cc2OC(C)C)c1 came out at > 100 µM

Just so you know, measured TGI for COc1cc(Oc2nc3ccccc3nc2C(=O)O)cc(OC)c1OC came out at > 100 µM

Just so you know, measured TGI for Cc1cc(S(=O)(=O)Nc2nc3ccsc3c(=O)n2N)c(S)cc1Cl came out at > 100 µM

Just so you know, measured TGI for CC1(C)O[C@H](C(=O)O)[C@@H](C(=O)O)O1 came out at > 100 µM

Just so you know, measured TGI for CCSSCS(C)(=O)=O came out at > 100 µM

Just so you know, measured TGI for Cc1c2c(n3c(nc4ccccc43)c1C#N)SCC2 came out at > 10 µM

Just so you know, measured TGI for CN(C(=O)C12C3C4(C(=O)O)C1(C(=O)N(C)C(C)(C)C)C1C2(C(=O)O)C3(C(=O)N(C)C(C)(C)C)C14C(=O)N(C)C(C)(C)C)C(C)(C)C (centres undefined) came out at > 100 µM

Just so you know, measured TGI for O=C(Cn1ccnc1[N+](=O)[O-])NCCO came out at > 100 µM

====

# Tested on: DMS 114 small cell lung
# assay: NCI tumour cell line growth inhibition, 48 h
metric name: TGI

Entry CC(=O)NNc1nc(C)c(C(/C=C/c2ccc(/C=C/C(=N\NC(=O)c3ccncc3)c3sc(NNC(C)=O)nc3C)cc2)=N/NC(=O)c2ccncc2)s1 , tested on DMS 114 small cell lung, has a reported TGI of > 100 µM

Entry CC(C)NC(=O)OCc1nnn2c1C(OC(=O)NC(C)C)CC2 (stereo unspecified) , tested on DMS 114 small cell lung, has a reported TGI of > 100 µM

Entry C[N+](C)(C)CC(=O)N/N=C(/C=C/c1ccccc1)CC1OC(=O)c2ccccc21 (stereo unspecified) , tested on DMS 114 small cell lung, has a reported TGI of > 100 µM

Entry CCc1ccc(Cc2ccc(CC)c(NC(=O)C(=O)Cc3nc4ccccc4nc3C)c2CC)c(CC)c1NC(=O)C(=O)Cc1nc2ccccc2nc1C , tested on DMS 114 small cell lung, has a reported TGI of > 100 µM

Entry C=CCCc1cc(OC)ccc1CN(C)C(C)(C)CO , tested on DMS 114 small cell lung, has a reported TGI of > 100 µM

Entry CCC12C=CCN3CC[C@]4(C(=C(C(=O)OC)[C@@H]1Nc1ncnc5c1ncn5C1OC(COC(C)=O)C(OC(C)=O)C1OC(C)=O)Nc1ccccc14)C32 (stereo partly specified) , tested on DMS 114 small cell lung, has a reported TGI of 4.27 µM

Entry COc1c(O)c2ccccc2c2cc(O)ccc12 , tested on DMS 114 small cell lung, has a reported TGI of 6.03 µM

Entry CCCCNC(=S)Nn1c(-c2ccccc2)nc2ccccc2c1=O , tested on DMS 114 small cell lung, has a reported TGI of > 100 µM

Entry CCN(CC)CCN(C)CC(C)(C)C(=O)/C=C/c1ccccc1 , tested on DMS 114 small cell lung, has a reported TGI of 21.4 µM

Entry COC(=O)C1=C(O)C(O)=C(C(=O)OC)CC1 , tested on DMS 114 small cell lung, has a reported TGI of > 100 µM

Entry CCCOC(=O)C1CCC(=O)N1C(=O)C(Cl)Cl (stereo unspecified) , tested on DMS 114 small cell lung, has a reported TGI of > 100 µM

====

# Test system: HCT-116 colon
# assay: NCI tumour cell line growth inhibition, 48 h
Would you mind telling me the reported TGI of each entry?

Just so you know, measured TGI for CC(=O)Nc1ccc(S(=O)(=O)Nc2nnc(S(N)(=O)=O)s2)cc1 came out at > 100 µM

Just so you know, measured TGI for CCS[C@H]1NC(=O)C1[C@H](C)O[Si](C)(C)C(C)(C)C (stereo partly specified) came out at > 100 µM

Just so you know, measured TGI for COc1c2occc2c(OC)c2c(=O)c(S(=O)(=O)NC(=O)Nc3ccc(Cl)cc3)coc12 came out at > 10 µM

Just so you know, measured TGI for Cc1c(C(=O)/C=C/c2ccco2)[n+](=O)c2ccccc2n1[O-] came out at > 100 µM

Just so you know, measured TGI for C=CCCc1cc(OC)ccc1CN(C)C(C)(C)CO came out at > 100 µM

Just so you know, measured TGI for CO/C(=N\N=C\c1ccc(Cl)cc1)c1ccncc1 came out at > 100 µM

====

# Tested on: MDA-MB-231 breast
# assay: NCI tumour cell line growth inhibition, 48 h
Would you mind telling me the reported TGI of each entry?
Provide the reading as a plain figure in µM.

Entry Clc1ccc(Cl)c(N/N=C\c2c[nH]c3ccccc23)c1 , tested on MDA-MB-231 breast, has a reported TGI of 8.07

Entry O=[N+]([O-])c1ccc2c(c1)nc(Cc1ccccc1)n2C[C@@H]1CCCN2CCCCC12 (some centres not stated) , tested on MDA-MB-231 breast, has a reported TGI of 95.1

Entry CC/C=C/[C@@H]1C=C[C@@H]2CCC[C@H]2[C@@H]1CC[C@H](O)[C@H](C)N , tested on MDA-MB-231 breast, has a reported TGI of 3.22
